// EC50 lookup, one value per entry
Target: Streptokinase A (Streptococcus pyogenes serotype M1, UniProt P10520)
Sequence (P10520 whole entry): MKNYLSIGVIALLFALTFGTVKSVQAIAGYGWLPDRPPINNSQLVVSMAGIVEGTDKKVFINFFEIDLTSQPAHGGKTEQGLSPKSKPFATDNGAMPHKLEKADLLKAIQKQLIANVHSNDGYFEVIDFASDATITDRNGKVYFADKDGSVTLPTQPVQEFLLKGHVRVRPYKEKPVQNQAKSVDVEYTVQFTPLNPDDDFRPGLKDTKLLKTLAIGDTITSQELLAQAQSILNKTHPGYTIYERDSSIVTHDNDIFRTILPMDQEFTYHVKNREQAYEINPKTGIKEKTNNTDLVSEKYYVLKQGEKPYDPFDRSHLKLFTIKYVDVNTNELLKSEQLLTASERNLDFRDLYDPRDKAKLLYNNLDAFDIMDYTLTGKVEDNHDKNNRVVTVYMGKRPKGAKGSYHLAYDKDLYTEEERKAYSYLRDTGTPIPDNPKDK
Assay: S. pyogenes streptokinase expression inhibitors, potency, dose response, plasminogen activation absorbance, OD405 (AID 1914);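 further: secreted streptokinase activity via plasminogen activation per viability signal from cell pellet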
Type: functional, Streptococcus pyogenes M1 GAS
The source made the active and inactive calls. No stated cut-off is given here; in the data, actives have a measured EC50 and inactives only a lower limit.
outcome measure: EC50

COC(=O)c1ccc(Cl)c(NC(=O)CSc2nnc(-c3ccncc3)o2)c1    > 150 µM (not active)
CCOC(=O)C1=C(C)N=c2s/c(=C/c3ccc(OCC(=O)O)c(OC)c3)c(=O)n2C1c1ccc(Cl)cc1 (stereo unspecified)    > 150 µM (not active)
Oc1nc(Nc2ccccc2)sc1/C=C1\C=Nc2ccccc21    > 150 µM (not active)
Cc1cc(/C=C2\SC(=S)N(C)C2=O)c(C)n1-c1ccc(O)cc1    > 150 µM (not active)
Cc1cc2oc(=O)cc(CNc3ccccc3F)c2cc1O    51.2 µM (active)
CCCC(=O)NC(c1ccc(C)cc1)c1ccc2cccnc2c1O (stereo unspecified)    > 150 µM (not active)
